Hello, the source for this data is patent EP4810052A2, in case you need it.

Target: T1, human corticotropin-releasing hormone receptor 1 (human, UniProt P34998 24-415)
T1 sequence (looked up): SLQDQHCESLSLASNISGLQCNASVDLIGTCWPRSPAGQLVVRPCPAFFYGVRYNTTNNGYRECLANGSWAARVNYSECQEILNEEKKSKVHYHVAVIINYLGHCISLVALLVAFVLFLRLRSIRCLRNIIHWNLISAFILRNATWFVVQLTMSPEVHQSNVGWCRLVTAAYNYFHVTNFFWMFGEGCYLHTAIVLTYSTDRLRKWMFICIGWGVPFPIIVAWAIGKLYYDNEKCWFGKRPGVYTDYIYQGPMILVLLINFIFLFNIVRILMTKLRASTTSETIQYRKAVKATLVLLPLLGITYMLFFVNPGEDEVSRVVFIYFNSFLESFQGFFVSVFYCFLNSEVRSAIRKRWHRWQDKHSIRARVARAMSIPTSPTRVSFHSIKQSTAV
Assay: cell-based or functional assay
Starred links: 1 amine or outer side, 2 acyl side, 3 side chain; linkers in the order of their positions; H or OH if unused. Non-standard residues stand in square brackets, D forms with d. Groups on a side chain read outwards from the residue. No end group written: not given here. *: point of attachment. C20 diacid = O=C(O)CCCCCCCCCCCCCCCCCCC(=O)*; γGlu = O=C(O)[C@H](CCC(=O)[*:2])N[*:1]; NMeI = CC[C@H](C)[C@H](NC)C(=O)O; Nle = CCCC[C@H](N)C(=O)O; lip = not defined here; AEEA = NCCOCCOCC(=O)O; Aib = CC(C)(N)C(=O)O
Kindly supply the reported hCRHR1 EC50 (nM); HTRF cAMP assay, CHO-K1 cells stably expressing hCRHR1 values for the records listed here.

Just so you know, measured hCRHR1 EC50 (nM); HTRF cAMP assay, CHO-K1 cells stably expressing hCRHR1 for [NMeI]VLSLDVPIGLLQILLSQARARAAREQAK(lip)ENAEI[Nle]AEV-NH2 (reading uncertain) [SEQ ID NO: 101] came out at > 5000 nM

Just so you know, measured hCRHR1 EC50 (nM); HTRF cAMP assay, CHO-K1 cells stably expressing hCRHR1 for IVLSLDVPIGLLQILLSQARARAAREQAK(lip)TNAEI[Nle]AEI-NH2 (not fully specified; reading uncertain) [SEQ ID NO: 89] came out at > 5000 nM

Just so you know, measured hCRHR1 EC50 (nM); HTRF cAMP assay, CHO-K1 cells stably expressing hCRHR1 for IVLSLDVPIGLLQILLSQARARAAREQAK[Aib]NAEI[Nle]AEV-NH2 (not fully specified (residue 29); also: lipid and spacer on Lys29 not given here) [SEQ ID NO: 237] came out at > 5000 nM

Just so you know, measured hCRHR1 EC50 (nM); HTRF cAMP assay, CHO-K1 cells stably expressing hCRHR1 for IVLSLDVPIGLLQILLSQARARAAREQAKTN[Aib]EI[Nle]AEV-NH2 (not fully specified (residue 29); also: lipid and spacer on Lys29 not given here) [SEQ ID NO: 234] came out at > 5000 nM

Just so you know, measured hCRHR1 EC50 (nM); HTRF cAMP assay, CHO-K1 cells stably expressing hCRHR1 for PVLSLDVPIGLLQILLSQARARAAREQAK[Aib]NAEI[Nle]AEV-NH2 (not fully specified (residue 29); printed as PVLSLDVPIGLLQILLSQARARAAREQA[K*][Aib]NAEI[Nle]AEV(NH_2); also: lipid and spacer on Lys29 not given here) [SEQ ID NO: 238, PVLSLDVPIGLLQILLSQARARAAREQA[K*][Aib]NAEI[Nle]AEV(NH2)] came out at > 5000 nM

Just so you know, measured hCRHR1 EC50 (nM); HTRF cAMP assay, CHO-K1 cells stably expressing hCRHR1 for [NMeI]VLSLDVPIGLLQILLSQARARAAREQAK([AEEA-AEEA-γGlu-γGlu-C20 diacid])TN[Aib]EI[Nle]AEV-NH2 (not fully specified; printed as [MeI]VLSLDVPIGLLQILLSQARARAAREQA[K*]TN[Aib]EI[Nle]AEV(NH_2)) [SEQ ID NO: 215, [MeI]VLSLDVPIGLLQILLSQARARAAREQA[K*]TN[Aib]EI[Nle]AEV(NH2)] came out at > 5000 nM

Just so you know, measured hCRHR1 EC50 (nM); HTRF cAMP assay, CHO-K1 cells stably expressing hCRHR1 for [NMeI]VLSLDVPIGLLQILLSQARARAAREQAK(lip)[Aib]NAEI[Nle]AEV-NH2 (reading uncertain) [SEQ ID NO: 132] came out at > 5000 nM

Just so you know, measured hCRHR1 EC50 (nM); HTRF cAMP assay, CHO-K1 cells stably expressing hCRHR1 for IVLSLDVPIGLLQILLEQARARAAREQAK(lip)TNAEILAEV-NH2 (not fully specified; reading uncertain) [SEQ ID NO: 3 (Lipidated UCN2 with X^36 = E; X^40 = E) (reference 1)] came out at > 5000 nM
